Where these numbers come from: patent US20150094294A1

# METHOD_DESCRIPTION: Cytotoxicity against 3T3 cells
# Format: cell-based
# CONDITION_CONTEXT: mouse, 3T3 cells; read-out: Cytotoxicity 3T3 EC50
Recorded log10(EC50) by entry
RECORDED_METRIC: log10(EC50) (log10 of the value in µM)

[[record]]
smi = "NCCCc1cccc(-c2cncc(-c3ccc(-c4cncc(-c5cccc(CCCN)c5)c4)s3)c2)c1"
recorded_metric = "log10(EC50)"
recorded_result = 1.57

[[record]]
smi = "COc1cc(OC)c(C(=O)Nc2cc(C(F)(F)F)cc(NC(=O)c3cccc(C#N)c3)c2SCCN)cc1C(=O)Nc1cc(C(F)(F)F)cc(NC(=O)c2cccc(C#N)c2)c1SCCN"
recorded_metric = "log10(EC50)"
recorded_result = 2.93

[[record]]
smi = "N=C(N)N1CCN(c2ccc3sc4ccc(N5CCN(C(=N)N)CC5)cc4c3c2)CC1"
recorded_metric = "log10(EC50)"
recorded_result = 2.85

[[record]]
smi = "c1cc(N2CCNCC2)ccc1-c1ccc(-c2ccc(N3CCNCC3)cc2)o1"
recorded_metric = "log10(EC50)"
recorded_result = 1.46

[[record]]
smi = "FC(F)(F)c1ccc(CN2CCNCC2)cc1Oc1ccc(Oc2cc(CN3CCNCC3)ccc2C(F)(F)F)cc1"
recorded_metric = "log10(EC50)"
recorded_result = 1.15

[[record]]
smi = "O=C(Nc1ccc(O[C@@H]2CCNC2)cc1)c1cc(C(=O)Nc2ccc(O[C@@H]3CCNC3)cc2)ncn1"
recorded_metric = "log10(EC50)"
recorded_result = 2.61

[[record]]
smi = "O=S(=O)(c1ccc(Oc2cc(NC3CCNCC3)cc(C(F)(F)F)c2)cc1)c1ccc(Oc2cc(NC3CCNCC3)cc(C(F)(F)F)c2)cc1"
recorded_metric = "log10(EC50)"
recorded_result = 1.78

[[record]]
smi = "N=C(N)NCCCCN1CCc2ccc(NC(=O)c3cc(C(=O)Nc4ccc5c(c4)CCN(CCCCNC(=N)N)CC5)ncn3)cc2CC1"
recorded_metric = "log10(EC50)"
recorded_result = 2.67

[[record]]
smi = "N=C(N)NCCCc1cccc(-c2cncc(-c3ccc(-c4cncc(-c5cccc(CCCNC(=N)N)c5)c4)s3)c2)c1"
recorded_metric = "log10(EC50)"
recorded_result = 1.79

[[record]]
smi = "N=C(N)NCCSc1cc(SCCN)c(NC(=O)c2cc(C(=O)Nc3cc(C(F)(F)F)c(SCCNC(=N)N)cc3SCCN)ncn2)cc1C(F)(F)F"
recorded_metric = "log10(EC50)"
recorded_result = 1.41

[[record]]
smi = "Fc1cc(NC2CCNCC2)cc(Oc2ccc(Oc3cc(F)cc(NC4CCNCC4)c3)cc2)c1"
recorded_metric = "log10(EC50)"
recorded_result = 1.36

